test system: human coronary artery smooth muscle cells; experiment: Proliferation of cultured human coronary artery smooth muscle cells; type: cell-based; conditions: in vitro cell culture studies; read-out: anti-proliferative IC50
pIC50: −log10 of the molar value.
ASSAY_ENDPOINT: pIC50

Field pIC50 (entry CC(/C=C/C(=O)NO)=C\[C@@H](C)C(=O)c1ccc(N(C)C)cc1 [trichostatin A] ) reads ~8.22

// data source = patent US20080241215A1
